experimental_target: Tyrosine-protein kinase CSK (Homo sapiens)
protocol_description: Inhibition of CSK at 1 uM; values are per cent of control
measurement_name: residual activity (%)

CN(C)C(=O)c1ccc2c(c1)/C(=C(/Nc1ccc(CN3CCCCC3)cc1)c1ccccc1)C(=O)N2; 74

I: CCNCc1ccc(N/C(=C2\C(=O)Nc3cc(C(=O)N(C)CC)ccc32)c2ccccc2)cc1
II: O=C1Nc2ccccc2/C1=C(/Nc1ccc(CN2CCCCC2)cc1)c1ccccc1
Sort I and II by residual activity descending and give the first. // respond with label for picked entry I
(I: 78%, II: 32%)

----------
experimental_target: MAP kinase-activated protein kinase 5 (Homo sapiens)
Sequence (whole entry): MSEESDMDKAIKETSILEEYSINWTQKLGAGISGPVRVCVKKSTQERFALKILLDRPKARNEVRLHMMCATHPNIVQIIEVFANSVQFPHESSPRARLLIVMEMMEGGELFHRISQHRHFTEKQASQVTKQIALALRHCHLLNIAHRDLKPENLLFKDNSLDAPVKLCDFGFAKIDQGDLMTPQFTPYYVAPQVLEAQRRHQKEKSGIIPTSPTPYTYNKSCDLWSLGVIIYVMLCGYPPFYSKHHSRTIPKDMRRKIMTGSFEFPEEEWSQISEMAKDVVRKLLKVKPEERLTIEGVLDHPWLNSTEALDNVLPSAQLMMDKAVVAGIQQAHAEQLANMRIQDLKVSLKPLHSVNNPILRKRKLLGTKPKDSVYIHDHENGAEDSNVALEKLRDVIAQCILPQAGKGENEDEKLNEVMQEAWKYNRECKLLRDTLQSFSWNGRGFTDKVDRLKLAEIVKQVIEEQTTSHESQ
protocol_description: Inhibition of PRAK at 1 uM; values are per cent of control
measurement_name: residual activity (%)

CCNC(=O)c1ccc2c(c1)NC(=O)/C2=C(\Nc1ccc(N(CCN(C)C)S(C)(=O)=O)cc1)c1ccccc1; 67

a: O=C1Nc2ccccc2/C1=C(/Nc1ccc(CN2CCCCC2)cc1)c1ccccc1
b: CN(C)C(=O)c1ccc2c(c1)/C(=C(/Nc1ccc(CN3CCCCC3)cc1)c1ccccc1)C(=O)N2
c: CCNC(=O)c1ccc2c(c1)NC(=O)/C2=C(\Nc1ccc(CN(C)C)cc1)c1ccccc1
List by increasing residual activity. # respond with the labels, arranged in the requested order a, b, c
(a: 38%, b: 59%, c: 96%)

----------
experimental_target: Protein kinase C alpha type (Homo sapiens)
protocol_description: Inhibition of PKCalpha at 1 uM; values are per cent of control
measurement_name: residual activity (%)

CCN(C)C(=O)c1ccc2c(c1)NC(=O)/C2=C(\Nc1ccc(CN2CCCCC2)cc1)c1ccccc1; 88

I: CCNC(=O)c1ccc2c(c1)NC(=O)/C2=C(\Nc1ccc(N(CCN(C)C)S(C)(=O)=O)cc1)c1ccccc1
II: O=C1Nc2ccccc2/C1=C(/Nc1ccc(CN2CCCCC2)cc1)c1ccccc1
Consider I and II . Which of these has its residual activity at a higher number? Label of pick, please. I
(I: 100%, II: 29%)

1: CN(C)C(=O)c1ccc2c(c1)/C(=C(/Nc1ccc(CN3CCCCC3)cc1)c1ccccc1)C(=O)N2
2: CCNCc1ccc(N/C(=C2\C(=O)Nc3cc(C(=O)N(C)CC)ccc32)c2ccccc2)cc1
Which value of residual activity is smaller, the one for 1 or the one for 2 ? API: response body contains the label of the selected item. 1

----------
experimental_target: TGF-beta receptor type-1 (Homo sapiens, UniProt P36897)
Sequence (P36897 whole entry): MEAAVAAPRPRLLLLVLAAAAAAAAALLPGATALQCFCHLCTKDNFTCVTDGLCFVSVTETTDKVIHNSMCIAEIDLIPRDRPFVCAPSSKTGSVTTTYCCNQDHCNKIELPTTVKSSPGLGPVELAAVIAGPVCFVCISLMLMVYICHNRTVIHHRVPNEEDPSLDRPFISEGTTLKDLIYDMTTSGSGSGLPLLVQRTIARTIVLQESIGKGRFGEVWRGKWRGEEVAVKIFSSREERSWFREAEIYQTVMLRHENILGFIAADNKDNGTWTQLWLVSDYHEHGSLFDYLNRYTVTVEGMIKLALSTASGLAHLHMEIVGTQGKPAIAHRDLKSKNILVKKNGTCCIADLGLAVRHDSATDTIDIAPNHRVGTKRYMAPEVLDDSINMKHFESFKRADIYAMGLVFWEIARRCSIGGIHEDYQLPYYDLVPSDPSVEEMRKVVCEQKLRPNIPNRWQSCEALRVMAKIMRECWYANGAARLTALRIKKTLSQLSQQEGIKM
measurement_name: IC50 (nM)

CCN(C)C(=O)c1ccc2c(c1)NC(=O)/C2=C(\Nc1ccc(N(CCCN(C)C)C(C)=O)cc1)c1ccccc1; 9
CCN(C)C(=O)c1ccc2c(c1)NC(=O)/C2=C(\Nc1ccc(N(C)S(C)(=O)=O)cc1)c1ccccc1; 231
CCN(CC)CCNC(=O)c1ccc(N/C(=C2\C(=O)Nc3cc(C(=O)N(C)CC)ccc32)c2ccccc2)cc1; 64

a: CCN(C)C(=O)c1ccc2c(c1)NC(=O)/C2=C(\Nc1ccc(N(C)C(=O)CN(C)C)cc1)c1ccccc1
b: CCNC(=O)c1ccc2c(c1)NC(=O)/C2=C(\Nc1ccc(N(CCCN(C)C)C(C)=O)cc1)c1ccccc1
I'm curious whether a or b has the smaller IC50 number. Which is it? # respond with the chosen item's label b
(b: 3 nM, a: 29 nM)

----------
experimental_target: Serine/threonine-protein kinase Nek2 (Homo sapiens) (UniProt P51955)
Sequence (P51955 whole entry): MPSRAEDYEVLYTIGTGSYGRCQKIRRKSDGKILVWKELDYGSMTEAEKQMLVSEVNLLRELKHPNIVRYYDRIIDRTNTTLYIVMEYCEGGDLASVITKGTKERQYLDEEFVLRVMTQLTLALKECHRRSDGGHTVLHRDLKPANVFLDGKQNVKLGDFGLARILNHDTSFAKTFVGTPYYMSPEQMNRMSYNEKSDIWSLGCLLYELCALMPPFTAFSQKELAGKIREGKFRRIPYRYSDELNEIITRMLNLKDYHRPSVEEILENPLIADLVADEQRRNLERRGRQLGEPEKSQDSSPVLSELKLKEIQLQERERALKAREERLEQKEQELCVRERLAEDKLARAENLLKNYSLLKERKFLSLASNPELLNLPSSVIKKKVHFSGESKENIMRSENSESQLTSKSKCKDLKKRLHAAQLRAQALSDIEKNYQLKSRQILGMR
protocol_description: Inhibition of NEK2A at 1 uM; values are per cent of control
measurement_name: residual activity (%)

A: CCNCc1ccc(N/C(=C2\C(=O)Nc3cc(C(=O)N(C)CC)ccc32)c2ccccc2)cc1
B: O=C1Nc2ccccc2/C1=C(/Nc1ccc(CN2CCCCC2)cc1)c1ccccc1
Lab note: record which item had the higher residual activity, A or B . API: response body contains the label of the selected item. A

----------
experimental_target: Glycogen synthase kinase-3 beta (Homo sapiens)
protocol_description: Inhibition of GSK3-beta at 1 uM; values are per cent of control
measurement_name: residual activity (%)

O=C1Nc2ccccc2/C1=C(/Nc1ccc(CN2CCCCC2)cc1)c1ccccc1; 1

I: CCNCc1ccc(N/C(=C2\C(=O)Nc3cc(C(=O)N(C)CC)ccc32)c2ccccc2)cc1
II: CCN(C)C(=O)c1ccc2c(c1)NC(=O)/C2=C(\Nc1ccc(CN2CCCCC2)cc1)c1ccccc1
Would you mind telling me which has the lower recorded residual activity between I and II ? State your choice using its label. I

A: CCNC(=O)c1ccc2c(c1)NC(=O)/C2=C(\Nc1ccc(N(CCN(C)C)S(C)(=O)=O)cc1)c1ccccc1
B: CN(C)C(=O)c1ccc2c(c1)/C(=C(/Nc1ccc(CN3CCCCC3)cc1)c1ccccc1)C(=O)N2
Pick the one with the larger residual activity: A vs B The response must carry the label of the picked entry. A
(A: 124%, B: 5%)

----------
protocol_description: Inhibition of PKA at 1 uM; values are per cent of control
measurement_name: residual activity (%)

CCN(C)C(=O)c1ccc2c(c1)NC(=O)/C2=C(\Nc1ccc(CN2CCCCC2)cc1)c1ccccc1; 96
CCNCc1ccc(N/C(=C2\C(=O)Nc3cc(C(=O)N(C)CC)ccc32)c2ccccc2)cc1; 96
CCNC(=O)c1ccc2c(c1)NC(=O)/C2=C(\Nc1ccc(N(CCN(C)C)S(C)(=O)=O)cc1)c1ccccc1; 75
CCNC(=O)c1ccc2c(c1)NC(=O)/C2=C(\Nc1ccc(CN(C)C)cc1)c1ccccc1; 90

A: CN(C)C(=O)c1ccc2c(c1)/C(=C(/Nc1ccc(CN3CCCCC3)cc1)c1ccccc1)C(=O)N2
B: O=C1Nc2ccccc2/C1=C(/Nc1ccc(CN2CCCCC2)cc1)c1ccccc1
Param metric = residual activity; output whichever of A , B has the minimum value. Select an item and report its label. B

----------
protocol_description: Inhibition of AMPK at 1 uM; values are per cent of control
measurement_name: residual activity (%)

O=C1Nc2ccccc2/C1=C(/Nc1ccc(CN2CCCCC2)cc1)c1ccccc1; 4

1: CCN(C)C(=O)c1ccc2c(c1)NC(=O)/C2=C(\Nc1ccc(CN2CCCCC2)cc1)c1ccccc1
2: CN(C)C(=O)c1ccc2c(c1)/C(=C(/Nc1ccc(CN3CCCCC3)cc1)c1ccccc1)C(=O)N2
Which record would sort first by descending residual activity, 1 or 2 ? When you have decided, please share the label of that item. 1
(1: 80%, 2: 2%)

----------
experimental_target: Dual specificity mitogen-activated protein kinase kinase 1 (Homo sapiens)
protocol_description: Inhibition of MKK1 at 1 uM; values are per cent of control
measurement_name: residual activity (%)

P: CCNCc1ccc(N/C(=C2\C(=O)Nc3cc(C(=O)N(C)CC)ccc32)c2ccccc2)cc1
Q: O=C1Nc2ccccc2/C1=C(/Nc1ccc(CN2CCCCC2)cc1)c1ccccc1
R: CN(C)C(=O)c1ccc2c(c1)/C(=C(/Nc1ccc(CN3CCCCC3)cc1)c1ccccc1)C(=O)N2
Rank the 3 compounds shown above by residual activity, smallest number first. Give the labels in the order requested. Q, R, P
(Q: 4%, R: 12%, P: 61%)
